As shown below, each of these compounds has a reported half-life value.
assay-details: Pharmacokinetics in plasma and lung in mouse, intratracheal instillation
Assay type: in vivo
details: mouse, lung, intratracheal instillation, male CD1 mice, read-out: Lung T1/2 (converted)

Solved cases (3 shown):
compound="CCC(=O)Nc1ccc(Nc2ncc(F)c(-c3c[nH]c4c(NC(=O)[C@@H](COC)N5CCN(C)CC5)cccc34)n2)cn1 [Example 5]" assay_readout=half-life measured_value="366 min"
compound="COC[C@H](C(=O)Nc1cccc2c(-c3nc(Nc4ccnc(CO)c4)ncc3F)c[nH]c12)N1CCN(C)CC1 [Example 2]" assay_readout=half-life measured_value="1790 min"
compound="COC[C@H](C(=O)Nc1cccc2c(-c3nc(Nc4ccc5sc(CO)nc5c4)ncc3F)c[nH]c12)N1CCN(C)CC1 [Example 38]" assay_readout=half-life measured_value="234 min"

IN: Return reported half-life; argument: COC[C@H](C(=O)Nc1cccc2c(-c3nc(Nc4ccc(-c5cnco5)nc4)ncc3F)c[nH]c12)N1CCN(C)CC1 [Example 40]
OUT: 276 min

IN: Now consider COC[C@H](C(=O)Nc1cccc2c(-c3nc(Nc4ccc(NC(=O)CO)nc4)ncc3F)c[nH]c12)N1CCN(C)CC1 [Example 8] .
OUT: 210 min

----------
measured-on: JAK2 (Homo sapiens)
Sequence (O60674 whole entry): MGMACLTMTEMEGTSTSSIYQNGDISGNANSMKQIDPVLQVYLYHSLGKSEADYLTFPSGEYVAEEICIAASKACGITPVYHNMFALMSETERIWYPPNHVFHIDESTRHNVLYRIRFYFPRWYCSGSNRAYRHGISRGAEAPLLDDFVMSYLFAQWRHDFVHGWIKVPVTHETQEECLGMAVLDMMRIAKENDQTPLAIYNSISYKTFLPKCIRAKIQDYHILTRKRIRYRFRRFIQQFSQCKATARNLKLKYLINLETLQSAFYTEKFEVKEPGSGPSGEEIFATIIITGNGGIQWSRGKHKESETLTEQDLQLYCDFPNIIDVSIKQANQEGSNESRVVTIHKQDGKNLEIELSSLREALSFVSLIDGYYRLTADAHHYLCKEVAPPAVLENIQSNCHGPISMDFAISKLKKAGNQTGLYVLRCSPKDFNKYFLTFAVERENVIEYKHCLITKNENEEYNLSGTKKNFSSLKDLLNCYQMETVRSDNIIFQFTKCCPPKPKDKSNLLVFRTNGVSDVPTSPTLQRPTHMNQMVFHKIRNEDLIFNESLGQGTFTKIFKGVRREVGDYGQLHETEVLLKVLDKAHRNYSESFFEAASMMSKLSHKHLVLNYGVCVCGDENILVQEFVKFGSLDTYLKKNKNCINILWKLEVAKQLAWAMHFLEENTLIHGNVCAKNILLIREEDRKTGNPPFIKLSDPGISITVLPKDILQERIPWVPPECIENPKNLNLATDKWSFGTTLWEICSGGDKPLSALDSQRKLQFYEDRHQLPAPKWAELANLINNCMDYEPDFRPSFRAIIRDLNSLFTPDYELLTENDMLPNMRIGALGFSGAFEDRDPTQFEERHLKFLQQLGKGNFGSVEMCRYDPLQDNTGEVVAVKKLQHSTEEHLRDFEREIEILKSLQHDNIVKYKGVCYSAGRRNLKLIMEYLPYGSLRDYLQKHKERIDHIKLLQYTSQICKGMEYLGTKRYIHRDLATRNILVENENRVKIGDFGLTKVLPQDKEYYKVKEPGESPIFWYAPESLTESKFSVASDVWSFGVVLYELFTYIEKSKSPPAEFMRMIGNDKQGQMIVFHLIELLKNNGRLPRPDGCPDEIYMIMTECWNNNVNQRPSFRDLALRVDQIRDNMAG
assay-details: Lance Ultra Kinase Assay, recombinant JAK2
details: 5 mM ATP
pIC50: −log10 of the molar value.
Cut-off 7 on pIC50, inclusive. At or above means y; below means n.

molecule="COC[C@H](C(=O)Nc1cccc2c(-c3nc(Nc4cncc(CCCO)c4)ncc3F)c[nH]c12)N1CCN(C)CC1 [Example 25]" label=y

IN: Kindly determine if pIC50 recorded for CCC(=O)Nc1ccc(Nc2ncc(F)c(-c3c[nH]c4c(NC(=O)[C@@H](COC)N5CCN(C)CC5)cccc34)n2)cn1 [Example 5] is above or exactly 7.
OUT: n

IN: Let us now turn to COC[C@H](C(=O)Nc1cccc2c(-c3nc(Nc4ccc(-c5ncco5)nc4)ncc3F)c[nH]c12)N1CCN(C)CC1 [Example 22]
OUT: n

----------
measured-on: JAK2 (Homo sapiens)
assay-details: Lance Ultra Kinase Assay, recombinant JAK2
details: 5 mM ATP
assay-readout: pIC50
// pIC50: -log10(molar conc.)

Solved cases (3 shown):
record_smiles=COC[C@H](C(=O)Nc1cccc2c(-c3nc(Nc4ccnc(CCC(=O)OC)c4)ncc3F)c[nH]c12)N1CCN(C)CC1 assay_readout=pIC50 measured_value=7.70
record_smiles=COC[C@H](C(=O)Nc1cccc2c(-c3nc(Nc4ccc5c(c4)C(=O)NCC5)ncc3F)c[nH]c12)N1CCN(C)CC1 assay_readout=pIC50 measured_value=6.70
record_smiles=COC[C@H](C(=O)Nc1cccc2c(-c3nc(Nc4ccc5[nH]ccc5c4)ncc3F)c[nH]c12)N1CCN(C)CC1 assay_readout=pIC50 measured_value=6.96

IN: Give JAK2 (Homo sapiens) pIC50 for COC[C@H](C(=O)Nc1cccc2c(-c3nc(Nc4ccc5scnc5c4)ncc3F)c[nH]c12)N1CCN(C)CC1
OUT: 7.00

----------
measured-on: JAK1 (Homo sapiens, UniProt P23458)
Sequence (P23458 whole entry): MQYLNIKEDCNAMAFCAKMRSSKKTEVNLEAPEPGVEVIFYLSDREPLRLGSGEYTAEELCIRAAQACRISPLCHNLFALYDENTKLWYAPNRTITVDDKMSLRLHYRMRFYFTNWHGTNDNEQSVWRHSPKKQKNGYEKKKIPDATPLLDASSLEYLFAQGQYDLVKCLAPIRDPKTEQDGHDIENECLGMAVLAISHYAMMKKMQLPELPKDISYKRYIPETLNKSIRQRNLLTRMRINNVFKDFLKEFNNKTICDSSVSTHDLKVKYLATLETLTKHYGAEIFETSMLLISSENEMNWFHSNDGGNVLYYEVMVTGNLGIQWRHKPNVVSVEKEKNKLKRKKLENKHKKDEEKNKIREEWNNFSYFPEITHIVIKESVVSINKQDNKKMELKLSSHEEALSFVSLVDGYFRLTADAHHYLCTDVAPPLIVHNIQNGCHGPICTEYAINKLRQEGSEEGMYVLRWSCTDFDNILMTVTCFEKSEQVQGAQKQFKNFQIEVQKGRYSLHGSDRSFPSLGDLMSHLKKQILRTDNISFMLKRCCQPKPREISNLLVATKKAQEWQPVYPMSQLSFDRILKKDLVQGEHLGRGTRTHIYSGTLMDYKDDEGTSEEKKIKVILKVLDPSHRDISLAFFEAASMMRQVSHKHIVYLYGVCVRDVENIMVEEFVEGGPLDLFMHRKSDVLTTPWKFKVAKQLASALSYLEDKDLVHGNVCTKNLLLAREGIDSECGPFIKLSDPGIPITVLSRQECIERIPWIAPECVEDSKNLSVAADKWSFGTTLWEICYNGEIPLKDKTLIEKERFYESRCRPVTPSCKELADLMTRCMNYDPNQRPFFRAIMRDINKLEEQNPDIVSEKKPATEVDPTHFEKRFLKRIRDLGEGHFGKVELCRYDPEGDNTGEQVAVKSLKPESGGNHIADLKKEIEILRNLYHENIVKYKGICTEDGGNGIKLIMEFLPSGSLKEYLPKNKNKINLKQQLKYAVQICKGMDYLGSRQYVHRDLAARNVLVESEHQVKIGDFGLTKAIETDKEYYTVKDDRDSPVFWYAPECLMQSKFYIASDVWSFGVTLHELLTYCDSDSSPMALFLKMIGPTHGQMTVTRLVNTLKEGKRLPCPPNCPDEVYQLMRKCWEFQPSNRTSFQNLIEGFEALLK
assay-details: Lance Ultra Kinase Assay, recombinant JAK1
details: 5 mM ATP
assay-readout: pIC50
# log scale: pIC50 equals minus log10 of the concentration in mol/L

molecule="COC[C@H](C(=O)Nc1cccc2c(-c3nc(Nc4ccc5c(c4)CCOC5=O)ncc3F)c[nH]c12)N1CCN(C)CC1 [Example 42]" measured_value=10.15

IN: Look up pIC50 with JAK1 (Homo sapiens, UniProt P23458) for this molecule: COC[C@H](C(=O)Nc1cccc2c(-c3nc(Nc4ccc5c(c4)NC(=O)C5)ncc3F)c[nH]c12)N1CCN(C)CC1 [Example 37]
OUT: 9.68

IN: Now this one: COC[C@H](C(=O)Nc1cccc2c(-c3nc(Nc4ccc5sc(CO)nc5c4)ncc3F)c[nH]c12)N1CCN(C)CC1 [Example 38]
OUT: 9.89

IN: Likewise for COC[C@H](C(=O)Nc1cccc2c(-c3nc(Nc4ccc(CCO)nc4)ncc3F)c[nH]c12)N1CCN(C)CC1 [Example 60] ?
OUT: 9.60

IN: Do the same for COC[C@H](C(=O)Nc1cccc2c(-c3nc(Nc4ccc5c(c4)C(=O)OCC5)ncc3F)c[nH]c12)N1CCN(C)CC1 [Example 64] please
OUT: 9.85

IN: COC[C@H](C(=O)Nc1cccc2c(-c3nc(Nc4cc(CO)c5cn[nH]c5c4)ncc3F)c[nH]c12)N1CCN(C)CC1 [Example 61] ?
OUT: 9.96

IN: Moving on to COC[C@H](C(=O)Nc1cccc2c(-c3nc(Nc4ccc5[nH]ccc5c4)ncc3F)c[nH]c12)N1CCN(C)CC1 [Example 41]
OUT: 9.66
